System: Plasmodium falciparum Sir2 (PF13_0152, Sir2A)
Test: pfSir2 binders on small-molecule microarrays, primary screen, biochemical, small-molecule microarray, 635 nm fluorescence (AID 1098);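 further: score merges spot fluorescence intensity with its signal-to-noise ratio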
Settings: small-molecule microarray binding, fluorescence 635 nm; higher = more signal
VALUE_KIND: composite z-score
The answer should be a number; do not append a unit.

Below are worked cases with known answers.
COMPOUND	composite z-score
CC(=O)NCCCC[C@@H]1NC(=O)[C@H]2C[C@@H](C(=O)NCCCCCC[N+](C)(C)C)[C@@H](c3ccc(O)cc3)N2C1=O	1.71
CC(=O)n1cc(C(O)C2C=CC3C(=O)N(c4ccccc4)C(=O)C3N2Nc2ccccc2F)c2ccccc21 (stereo not given)	1.76
COCCOC(=O)N1C(=O)[C@@]2(c3cc(C#CC4(O)CCCCCC4)ccc31)[C@H](C(=O)N1CCc3cc(OC)c(OC)cc3C1)[C@H]1C(=O)O[C@H](c3ccccc3)[C@H](c3ccccc3)N1[C@@H]2c1ccc(O)cc1	0.974

Record lookup: for Plasmodium falciparum Sir2 (PF13_0152, Sir2A), what composite z-score belongs to CN(C)CCCC[C@@H]1NC(=O)[C@@H]2C[C@H](C(=O)NCCCCCCNC(=O)CS)[C@H](c3cccc(OCCO)c3)N2C1=O ?
1.59

Record lookup: for Plasmodium falciparum Sir2 (PF13_0152, Sir2A), what composite z-score belongs to CCOC(=O)C1=CC[C@@H](c2ccccc2)N(S(=O)(=O)c2ccc(C)cc2)[C@H]1C#N ?
1.54

---

Test: small-molecule microarray binders of probe aCHRDL2, primary screen, biochemical, biotinylated probe, 635/667 nm fluorescence (AID 1100)
Conditions: higher = more signal
composite z-score: recorded values
The answer should be a number; do not append a unit.

MOLECULE	VALUE_KIND	TEST_RESULT
CC(C)[C@@H](C(=O)O)n1cc(-c2ccccc2)nn1	composite z-score	0.69

Recorded composite z-score of [N-]=[N+]=NCc1ccccc1C[C@]1(C(=O)NCc2ccccc2)N=C(c2ccc(OCCCO)cc2)O[C@H]1c1ccccc1CN=[N+]=[N-] , please.
0.889

Recorded composite z-score of COCCOC(=O)N1C(=O)[C@@]2(c3cc(C#CCCO)ccc31)[C@H](c1ccccc1OCCO)N1[C@H](c3ccccc3)[C@H](c3ccccc3)OC(=O)[C@H]1[C@@H]2C(=O)N1CCc2cc(OC)c(OC)cc2C1 , please.
0.395

Recorded composite z-score of COCCOC(=O)N1C(=O)[C@@]2(c3cc(C#CCCO)ccc31)[C@H](c1ccc(O)cc1)N1[C@H](c3ccccc3)[C@H](c3ccccc3)OC(=O)[C@H]1[C@@H]2C(=O)N1CCc2cc(OC)c(OC)cc2C1 , please.
0.342

Recorded composite z-score of O=C1NC(=O)C2C1C=CC(C(O)c1ccc(F)cc1)N2Nc1ccccn1 (configuration not stated) , please.
0.243

Recorded composite z-score of C=CCOC(=O)[C@H]1[C@@H]2C(=O)O[C@@H](c3ccccc3)[C@@H](c3ccccc3)N2[C@@H](c2ccc(OCCOC(=O)[C@@H]3C[C@@H]4C(=O)N[C@@H](Cc5ccccc5)C(=O)N4[C@@H]3c3ccc(O)cc3)cc2)[C@]12C(=O)Nc1ccccc12 , please.
-0.25

Recorded composite z-score of COC(=O)[C@@]1(Cc2ccccc2CN=[N+]=[N-])COC(c2ccc(OCCCO)cc2)=N1 , please.
1.23

Recorded composite z-score of COCCOC(=O)N1C(=O)[C@@]2(c3ccccc31)[C@H](c1ccc(OCCO)cc1)N1[C@H](c3ccccc3)[C@H](c3ccccc3)OC(=O)[C@H]1[C@@H]2C(=O)N1CCN(c2ncccn2)CC1 , please.
0.539

Recorded composite z-score of [N-]=[N+]=NCc1ccccc1C[C@]1(C(=O)O)COC(c2ccc(OCCCO)cc2)=N1 , please.
1.12

Recorded composite z-score of C[N+](C)(C)CCCC[C@@H]1NC(=O)[C@H]2C[C@@H](C(=O)NCCCCCNC(=O)CS)[C@@H](c3ccc(O)cc3)N2C1=O , please.
0.161

Recorded composite z-score of CCCC[C@@H]1C[C@H]1[C@@H](NC(=O)c1ccc(C(F)(F)F)cc1)c1ccc(C(=O)OC)cc1 , please.
0.158

Recorded composite z-score of CN(C)CCCCNC(=O)[C@H]1C[C@H]2C(=O)N[C@@H](Cc3ccccc3)C(=O)N2[C@H]1c1cccc(OCCO)c1 , please.
0.336

---

Assay: small-molecule microarray binders of probe aWnt5a, primary screen, biochemical, biotinylated probe, 635/667 nm fluorescence (AID 1113);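 further: score merges 667 nm fluorescence intensity with signal-to-noise per printed feature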
Conditions: higher = more signal
Answer not met if composite z-score is under -0.003, and met if it is -0.003 or more.

COMPOUND	ASSIGNED_CATEGORY
CN1C(=O)C2C(C1=O)C1C=C(c3ccc(CO)cc3)C2C(c2cccs2)N1C (stereo unspecified)	not met
C=C(/C(=C/C[C@@H](OC(C)=O)c1ccccc1OCCO)c1cc(C(=O)OC)ccc1OC)C(C)C	not met
C=CCC(OC(C)=O)[C@@H]1[C@@H](N(Cc2ccc(-c3ccccc3)cc2)C(=O)c2ccc(-c3ccccc3)cc2)c2cc(OCCCO)ccc2N1C(=O)c1ccc2ccccc2n1 (stereo partly specified)	not met
COC(=O)[C@@]1(Cc2ccc(F)cc2)[C@H]2c3cc(C(=O)N(C)C)n(CCN4CCOCC4)c3C[C@H]2CN1C(=O)c1ccccc1	met
COc1ccc(CC[C@H](O)c2cccc(OCC(=O)OC(C)(C)C)c2)cc1	met
O=C1O[C@@H](c2ccccc2)[C@@H](c2ccccc2)N2[C@@H](c3ccc(OCCO)cc3)[C@]3(C(=O)Nc4ccc(C#CCCO)cc43)[C@@H](C(=O)Nc3nc4ccccc4s3)[C@H]12	met
COC(=O)C1(CC(C)C)C=C2C(=C(C(C)C)C(=O)C2C)CN1 (stereo unspecified)	not met
C=CC[C@]1(C(=O)NCCCOC)N=C(c2ccc(OCCCO)cc2)O[C@H]1c1ccccc1	met
CCOC(=O)C[C@H]1[C@H](OC(=O)c2ccc(-c3ccccc3)cc2)[C@@H](NC(=O)c2ccc3ccccc3c2)c2cc(OCCCO)ccc2N1C(=O)c1ccccc1	met
COCCOC(=O)N1C(=O)[C@@]2(c3cc(C#CC4=CCCCC4)ccc31)[C@H](c1ccc(OCCO)cc1)N1[C@H](c3ccccc3)[C@H](c3ccccc3)OC(=O)[C@H]1[C@@H]2C(=O)N1CCCCCCC1	met

Consider the record given below.
Does the reported composite z-score for COc1ccc(C#Cc2ccc3c(c2)[C@]2(C(=O)N3)[C@H](c3ccc(OCCO)cc3)N3[C@H](c4ccccc4)[C@H](c4ccccc4)OC(=O)[C@H]3[C@@H]2C(=O)O)cc1 fall at or above the -0.003 mark?
met

---

Test system: wheat germ agglutinin (Triticum aestivum), Alexa647-labelled
Experiment: wheat germ agglutinin binders on compound microarrays, profiling panel, artefact control for SMM control-protein annotation, biochemical, small-molecule microarray, 635/667 nm fluorescence (AID 1140);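 further: score merges 667 nm feature emission with signal to noise over triplicate slides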
Conditions: WGA-A647 binding, 635 nm fluorescence, higher = more signal
VALUE_KIND: composite z-score
The answer should be a number; do not append a unit.

Below are worked cases with known answers.
> print(dat)
                            chemical.string                                    target  test.result
1  Cc1ccc(S(=O)(=O)N2[C@@H](c3ccccc3)C(C(=O)O)=CC[C@H]2c2ccc(C#N)cc2)cc1  wheat germ agglutinin (Triticum aestivum), Alexa647-labelled         1.05
2  COc1ccc(CCNC(=O)[C@@]2(C)c3ccccc3C(=O)N(Cc3cc(C(F)(F)F)cc(C(F)(F)F)c3)[C@H]2c2ccc(CO)cc2)cc1  wheat germ agglutinin (Triticum aestivum), Alexa647-labelled        0.367
3  C=C(CCCC)/C(=C/C[C@H](OC(C)=O)c1cccc(OCCO)c1)c1cc(C(=O)OC)ccc1OC  wheat germ agglutinin (Triticum aestivum), Alexa647-labelled        0.635
4  CN(C)C(=O)[C@@]1(CCS(=O)(=O)c2ccccc2)N=C(c2ccc(OCCCO)cc2)O[C@H]1c1ccccc1N=[N+]=[N-]  wheat germ agglutinin (Triticum aestivum), Alexa647-labelled        0.371
5  C=CC[C@@]1(C(=O)N(C)C)N=C(c2ccc(OCCCO)cc2)O[C@@H]1c1ccccc1  wheat germ agglutinin (Triticum aestivum), Alexa647-labelled         1.02

// next entry
Recorded composite z-score of CCCC=C(CCC)[C@@H](NS(=O)(=O)c1ccc(Cl)cc1)c1ccccc1 , please.
0.303

---

composite z-score: recorded values
System: Plasmodium falciparum Sir2 (PF13_0152, Sir2A)
Assay: pfSir2 binders on small-molecule microarrays, primary screen, biochemical, small-molecule microarray, 635 nm fluorescence (AID 1098);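 further: score merges spot fluorescence intensity with its signal-to-noise ratio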
Settings: small-molecule microarray binding, fluorescence 635 nm; higher = more signal
The answer should be a number; do not append a unit.

Below are worked cases with known answers.
COMPOUND	composite z-score
O=C1C2C=CC(C(O)c3ccc([N+](=O)[O-])cc3)N(Nc3ccccc3)C2C(=O)N1c1ccccc1 (configuration not stated)	1.32
CCCCN1CC=CC23O[C@@H]4C=CCOC(=O)[C@@H]4[C@H]2C(=O)N(C(CO)C(C)C)[C@@H]3C1=O (some centres not stated)	-0.662
COCCOC(=O)N1C(=O)[C@@]2(c3ccccc31)[C@H](C(=O)N1CCCCCCC1)[C@H]1C(=O)O[C@H](c3ccccc3)[C@H](c3ccccc3)N1[C@@H]2c1ccc(O)cc1	1.86
COC(=O)C1=CC(CCCO)=CC(C2CC2)N(Cc2cccc(OC(F)(F)F)c2)C=C1C(=O)OC (configuration not stated)	1.19

Recorded composite z-score of COC(=O)C1(CC(C)C)C=C2C(=C(C(C)C)C(=O)C2C)CN1 (configuration not stated) , please.
-0.573

Recorded composite z-score of COCCOC(=O)N1C(=O)[C@@]2(c3cc(C#CC4=CCCCC4)ccc31)[C@H](c1ccc(OCCO)cc1)N1[C@H](c3ccccc3)[C@H](c3ccccc3)OC(=O)[C@H]1[C@@H]2C(=O)N1CCCCCCC1 , please.
0.959
